# target or system: [Pyruvate dehydrogenase (acetyl-transferring)] kinase isozyme 1, mitochondrial (Homo sapiens)
# Sequence (Q15118 whole entry): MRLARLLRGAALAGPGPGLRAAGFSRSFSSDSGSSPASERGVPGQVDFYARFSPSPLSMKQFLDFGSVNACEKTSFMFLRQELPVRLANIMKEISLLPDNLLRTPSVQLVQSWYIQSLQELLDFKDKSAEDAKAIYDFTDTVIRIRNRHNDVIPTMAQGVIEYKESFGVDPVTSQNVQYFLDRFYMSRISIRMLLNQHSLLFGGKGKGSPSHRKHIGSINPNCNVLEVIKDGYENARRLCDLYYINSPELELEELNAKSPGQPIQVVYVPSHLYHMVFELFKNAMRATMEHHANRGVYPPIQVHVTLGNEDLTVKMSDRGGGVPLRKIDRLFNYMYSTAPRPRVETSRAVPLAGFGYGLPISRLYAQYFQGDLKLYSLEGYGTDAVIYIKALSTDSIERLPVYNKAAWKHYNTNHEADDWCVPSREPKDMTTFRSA
# assay procedure: Inhibition of PDK1 (unknown origin) incubated for 30 mins in presence of ATP by kinase glo luminescent kinase assay
endpoint label: pEC50
Units for pEC50: none; it is -log10 of a concentration expressed in mol/L.

### Prompt If you can, please state the reported pEC50 value of `O=C(CCCCCNC(=O)C(Cl)Cl)Nc1ccc([As]2SCCCS2)cc1` .
### Response 7.17

### Prompt If you can, please state the reported pEC50 value of `O=C(CCCCCNC(=O)C(Cl)Cl)Nc1ccccc1[As]1SCCCS1` .
### Response 5.49

### Prompt If you can, please state the reported pEC50 value of `O=C(Nc1ccc([As]2SCCCS2)cc1)C(Cl)Cl` .
### Response 5.33

### Prompt If you can, please state the reported pEC50 value of `O=C(CCCCCCNC(=O)C(Cl)Cl)Nc1ccccc1[As]1SCCCS1` .
### Response 5.92

### Prompt If you can, please state the reported pEC50 value of `O=C(CCCCCCCNC(=O)C(Cl)Cl)Nc1ccc([As]2SCCCS2)cc1` .
### Response 6.21

### Prompt If you can, please state the reported pEC50 value of `O=C(CCCCNC(=O)C(Cl)Cl)Nc1ccccc1[As]1SCCCS1` .
### Response 6.19

### Prompt If you can, please state the reported pEC50 value of `O=C(CCCCCCCCCCCNC(=O)C(Cl)Cl)Nc1ccccc1[As]1SCCCS1` .
### Response 5.80

###

# System: MOLM-13
# assay procedure: Antiproliferative activity against human MOLM-13 cells assessed as inhibition of cell growth incubated for 24 hrs by MTT assay
# Assay type: functional, cell-based
# recorded conditions: MOLM-13, 24 h
Provide the recorded pIC50 for the entries that follow.
Units for pIC50: none; it is -log10 of a concentration expressed in mol/L.

### Prompt If you can, please state the reported pIC50 value of `O=C(CCCCCNC(=O)C(Cl)Cl)Nc1ccc([As]2SCCCS2)cc1` .
### Response 5.87

### Prompt If you can, please state the reported pIC50 value of `O=C(CCCCCCNC(=O)C(Cl)Cl)Nc1ccccc1[As]1SCCCS1` .
### Response 5.70

### Prompt If you can, please state the reported pIC50 value of `O=C(CCCNC(=O)C(Cl)Cl)Nc1ccc([As]2SCCCS2)cc1` .
### Response 5.87
